Source listed as patent US10710978B2.

Target: BRAF (Homo sapiens (Human))
Sequence (P15056 whole entry): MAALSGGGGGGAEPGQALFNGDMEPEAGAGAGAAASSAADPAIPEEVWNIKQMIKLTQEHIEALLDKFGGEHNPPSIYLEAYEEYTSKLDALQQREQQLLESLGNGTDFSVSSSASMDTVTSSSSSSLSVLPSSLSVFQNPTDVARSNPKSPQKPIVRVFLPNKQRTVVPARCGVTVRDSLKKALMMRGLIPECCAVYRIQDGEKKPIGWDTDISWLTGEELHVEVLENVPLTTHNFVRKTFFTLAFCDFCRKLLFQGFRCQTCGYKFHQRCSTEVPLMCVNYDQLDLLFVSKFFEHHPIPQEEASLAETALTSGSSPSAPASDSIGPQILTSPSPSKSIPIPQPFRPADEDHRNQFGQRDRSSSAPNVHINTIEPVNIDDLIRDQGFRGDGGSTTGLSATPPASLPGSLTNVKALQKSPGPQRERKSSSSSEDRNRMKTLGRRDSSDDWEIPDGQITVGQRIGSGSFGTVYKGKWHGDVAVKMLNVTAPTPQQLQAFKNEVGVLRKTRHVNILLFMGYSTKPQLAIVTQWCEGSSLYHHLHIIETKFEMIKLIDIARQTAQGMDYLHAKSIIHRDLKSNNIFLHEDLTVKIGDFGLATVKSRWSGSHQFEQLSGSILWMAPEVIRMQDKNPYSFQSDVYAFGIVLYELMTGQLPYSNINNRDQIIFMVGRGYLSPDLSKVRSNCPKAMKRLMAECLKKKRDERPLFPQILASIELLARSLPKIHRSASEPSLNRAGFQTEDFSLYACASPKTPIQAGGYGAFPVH
Assay: KiNativ assay
Type: binding
Settings: H929 live cell, read-out: inhibition (10 μM)
Method: Biochemical IC50s of the compounds of the present disclosure against various kinases were measured in a KiNativ assay. Compounds were screened in duplicate at 10 μM in H929 live cell. IC50 was measured via Mass spectroscopy (MS).

CHEMICAL_STRING	inhibition at 10 µM
Nc1ncc(-c2ccc(NS(=O)(=O)C3CC3)cc2F)cc1-c1ccc2c(c1)CCNC2=O	-41.8%
CN(C1CC1)S(=O)(=O)c1ccc(-c2cnc(N)c(-c3ccc4c(c3)CCNC4=O)c2)c(F)c1	-4.6%
Nc1ncc(-c2cccc([N+](=O)[O-])c2F)cc1-c1ccc2c(c1)CCNC2=O	3.3%
COc1cc(NS(=O)(=O)C2CC2)ccc1-c1cnc(N)c(-c2ccc3c(c2)CCNC3=O)c1	-35.8%
Nc1ncc(-c2ccc(NS(=O)(=O)C3CC3)cc2OC2CCCCC2)cc1-c1ccc2c(c1)CCNC2=O	-41.5%
Nc1ncc(-c2cccc3ncsc23)cc1-c1ccc2c(c1)CCNC2=O	10.2%
